Molecular target: UniProt:Q86WV6
Sequence (Q86WV6 whole entry H232R): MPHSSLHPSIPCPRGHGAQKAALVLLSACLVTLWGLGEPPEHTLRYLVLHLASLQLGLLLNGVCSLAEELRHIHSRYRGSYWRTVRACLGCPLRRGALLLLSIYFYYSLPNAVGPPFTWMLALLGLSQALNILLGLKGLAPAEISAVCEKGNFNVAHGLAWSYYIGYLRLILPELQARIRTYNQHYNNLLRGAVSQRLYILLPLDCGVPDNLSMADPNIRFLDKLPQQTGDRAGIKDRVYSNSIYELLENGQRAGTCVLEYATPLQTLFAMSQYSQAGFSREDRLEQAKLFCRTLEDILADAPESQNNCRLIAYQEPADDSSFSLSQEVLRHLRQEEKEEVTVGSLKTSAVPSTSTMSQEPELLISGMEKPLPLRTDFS
Assay: Fluorescence Thermal Shift assay (binding to STING)
Details: STING 0.1 mg/mL, SyproOrange, 25 to 99° C.
reported endpoint: hSTING FTS binding assay (ΔT C. °)

Take a look at these entries with their results.
Which hSTING FTS binding assay (ΔT C. °) value is on record for CNCCOc1cc2c(cc1F)c(=O)c(CN(Cc1ccnc(C)c1)[C@H]1CCCN(c3ccc(C)nc3)C1)cn2C1CC1.Cl ?
+++ (+++=ΔTm ≥20° C.)

Which hSTING FTS binding assay (ΔT C. °) value is on record for COCCn1cc(CN(Cc2ccnc(C)c2)[C@H]2CCCN(c3ccc(N)nc3)C2)c(=O)c2ccccc21.Cl ?
+++ (+++=ΔTm ≥20° C.)

Which hSTING FTS binding assay (ΔT C. °) value is on record for Cc1ccc(N2CCC[C@H](N(Cc3ccnc(C)c3)Cc3cn(C4CC4)c4cc(N5CCCC(C(=O)O)C5)c(F)cc4c3=O)C2)cn1 (some centres unmarked) ?
+++ (+++=ΔTm ≥20° C.)

Which hSTING FTS binding assay (ΔT C. °) value is on record for Cc1ccc(N2CCC[C@H](N(Cc3ccnc(C)c3)Cc3cn(C4CC4)c4cc(N5CCC[C@H](N)C5)c(F)cc4c3=O)C2)cn1 ?
+++ (+++=ΔTm ≥20° C.)

Which hSTING FTS binding assay (ΔT C. °) value is on record for Cc1cc(CN(Cc2cn(C)c3ccccc3c2=O)[C@H]2CCCN(c3ccc(CN)nc3)C2)ccn1.Cl ?
+ (+=ΔTm ≤10° C.)

Further cases:
Which hSTING FTS binding assay (ΔT C. °) value is on record for Cc1cc(CN(Cc2cn(C(C)C)c3cc(N4CC[C@@H](O)C4)ccc3c2=O)[C@H]2CCCN(c3ccnnc3)C2)ccn1 ?
+ (+=ΔTm ≤10° C.)

Which hSTING FTS binding assay (ΔT C. °) value is on record for Cc1ccc(N2CCC[C@H](N(Cc3ccnc(C)c3)Cc3cn(C4CC4)c4cc(N5CCC(C(=O)O)CC5)c(F)cc4c3=O)C2)cn1 ?
+++ (+++=ΔTm ≥20° C.)

Which hSTING FTS binding assay (ΔT C. °) value is on record for Cc1cc(CN(Cc2cn(C)c3cc(Br)ccc3c2=O)[C@H]2CCCN(c3ccc(N)nc3)C2)ccn1.Cl ?
+++ (+++=ΔTm ≥20° C.)

Which hSTING FTS binding assay (ΔT C. °) value is on record for Cc1cc(CN(Cc2cn(C)c3ccccc3c2=O)[C@H]2CCCN(c3cccc(N)c3)C2)ccn1.Cl ?
+ (+=ΔTm ≤10° C.)

Which hSTING FTS binding assay (ΔT C. °) value is on record for Cc1ccc(N2CCC[C@H](N(Cc3ccnc(C)c3)Cc3cn(C4CC4)c4cc(N5CCC[C@@H](O)C5)c(F)cc4c3=O)C2)cn1.Cl ?
+++ (+++=ΔTm ≥20° C.)
